Target: feline FcRn complex (FcRn-α subunit and β-microglobulin), biotin labeled (feline)
Experiment: SPR, pH 6
pKd: −log10 of the molar value.
Value type: pKd

binder="feline IgG1a S252F/S434F (antibody, part only; not given: Variable domains, not shown: another chain or arm of the molecule) constant: ASTTAPSVFPLAPSCGTTSGATVALACLVLGYFPEPVTVSWNSGALTSGVHTFPAVLQASGLYSLSSMVTVPSSRWLSDTFTCNVAHPPSNTKVDKTVRKTDHPPGPKPCDCPKCPPPEMLGGPSIFIFPPKPKDTLFISRTPEVTCLVVDLGPDDSDVQITWFVDNTQVYTAKTSPREEQFNSTYRVVSVLPILHQDWLKGKEFKCKVNSKSLPSPIERTISKAKGQPHEPQVYVLPPAQEELSRNKVSVTCLIKSFHPPDIAVEWEITGQPEPENNYRTTPPQLDSDGTYFVYSKLSVDRSHWQRGNTYTCSVSHEALHFHHTQKSLTQSPGK" value_type=pKd recorded_number=6.76
binder="feline IgG1a A378S (antibody, part only; not given: Variable domains, not shown: another chain or arm of the molecule) constant: ASTTAPSVFPLAPSCGTTSGATVALACLVLGYFPEPVTVSWNSGALTSGVHTFPAVLQASGLYSLSSMVTVPSSRWLSDTFTCNVAHPPSNTKVDKTVRKTDHPPGPKPCDCPKCPPPEMLGGPSIFIFPPKPKDTLSISRTPEVTCLVVDLGPDDSDVQITWFVDNTQVYTAKTSPREEQFNSTYRVVSVLPILHQDWLKGKEFKCKVNSKSLPSPIERTISKAKGQPHEPQVYVLPPAQEELSRNKVSVTCLIKSFHPPDISVEWEITGQPEPENNYRTTPPQLDSDGTYFVYSKLSVDRSHWQRGNTYTCSVSHEALHSHHTQKSLTQSPGK" value_type=pKd recorded_number=7.32
